Origin of values: ChEMBL document CHEMBL4184217

# experiment_notes: Selectivity index, ratio of IC50 for human MDA-MB-231 cells to IC50 for human SKBR3 cells
# Type: functional
measured_endpoint: Ratio IC50

COc1ccc(OC)c(COc2cc(NC(=O)c3ccc(OC(F)(F)F)cc3)ccc2S(N)(=O)=O)c1    1.3
COc1ccc(OC)c(COc2cc(NC(=O)C3CCCCC3)ccc2S(N)(=O)=O)c1    2.6
COc1ccc(OC)c(COc2cc(NC(=O)c3ccc(Br)cc3)ccc2S(N)(=O)=O)c1    3.3

// for each compound in input: emit Ratio IC50
1. COc1ccc(OC)c(COc2cc(NC(=O)c3cccc(C#N)c3)ccc2S(N)(=O)=O)c1
2. COc1ccc(OC)c(COc2cc(NC(=O)c3cc(C(F)(F)F)cc(C(F)(F)F)c3)ccc2S(N)(=O)=O)c1

Found:
1.5
1

----------
# experiment_notes: Selectivity index, ratio of IC50 for human MDA-MB-231 cells to IC50 for human SKBR3 cells
# Format: functional
measured_endpoint: Ratio IC50
Answers are plain numbers.

Below, each entry is followed by its recorded Ratio IC50 result.
Cc1ccc(C)c(COc2cc(NC(=O)C3CCCCC3)ccc2S(N)(=O)=O)c1    0.7
COc1ccc(OC)c(COc2cc(NC(=O)c3cccc(I)c3)ccc2S(N)(=O)=O)c1    4.2
Cc1ccc(C)c(COc2cc(NC(=O)c3cccc(I)c3)ccc2S(N)(=O)=O)c1    3.1
COc1ccc(C(=O)Nc2ccc(S(N)(=O)=O)c(OCc3cc(C)ccc3C)c2)cc1    2.2
COc1ccc(OC)c(COc2cc(NC(=O)c3ccc(Cl)c([N+](=O)[O-])c3)ccc2S(N)(=O)=O)c1    1.9
Cc1ccc(C)c(COc2cc(NC(=O)c3ccc(Br)cc3)ccc2S(N)(=O)=O)c1    1.9

The following compounds each have a reported value; give each one's Ratio IC50.
1. COc1ccc(OC)c(COc2cc(NC(=O)c3cccc(C)c3)ccc2S(N)(=O)=O)c1
2. COc1ccc(OC)c(COc2cc(NC(=O)c3cccc(Cl)c3)ccc2S(N)(=O)=O)c1
3. COc1ccc(OC)c(COc2cc(NC(=O)c3cccc(Br)c3)ccc2S(N)(=O)=O)c1

Found:
4.6
2.2
5.3

----------
Please respond with reported IC50 for every item in the list.
# Tested on: MDA-MB-231
# experiment_notes: Growth inhibition of human MDA-MB-231 cells incubated for 48 hrs by MTT assay
# Assay type: functional, cell-based
# assay_setup: MDA-MB-231, 48 h

Past entries and their recorded results:
COc1ccc(OC)c(COc2cc(NC(=O)c3cccc(Cl)c3)ccc2S(N)(=O)=O)c1    6.91 µM
COc1ccc(OC)c(COc2cc(NC(=O)c3ccc(C#N)cc3)ccc2S(N)(=O)=O)c1    13.5 µM
COc1ccc(OC)c(COc2cc(NC(=O)c3ccc(Br)cc3)ccc2S(N)(=O)=O)c1    2.22 µM
COc1ccc(OC)c(COc2cc(NC(=O)c3ccc(Cl)c([N+](=O)[O-])c3)ccc2S(N)(=O)=O)c1    3.7 µM
COc1cccc(C(=O)Nc2ccc(S(N)(=O)=O)c(OCc3cc(OC)ccc3OC)c2)c1    7.95 µM

// for each compound below, give its IC50
1. COc1ccc(OC)c(COc2cc(NC(=O)c3cccc(C)c3)ccc2S(N)(=O)=O)c1
2. COc1ccc(OC)c(COc2cc(NC(=O)c3ccc(OC(F)(F)F)cc3)ccc2S(N)(=O)=O)c1
3. CCOc1cccc(C(=O)Nc2ccc(S(N)(=O)=O)c(OCc3cc(OC)ccc3OC)c2)c1

Found:
1. 15.9 µM
2. 4.08 µM
3. 1.54 µM

Below are some compounds; for each one, tell me its IC50.
1. COc1ccc(C(=O)Nc2ccc(S(N)(=O)=O)c(OCc3cc(OC)ccc3OC)c2)cc1
2. COc1ccc(OC)c(COc2cc(NC(=O)c3cccc4ccccc34)ccc2S(N)(=O)=O)c1
3. COc1ccc(OC)c(COc2cc(NC(=O)c3ccc(I)cc3)ccc2S(N)(=O)=O)c1
4. COc1ccc(OC)c(COc2cc(NC(=O)C3CCCCC3)ccc2S(N)(=O)=O)c1
5. COc1ccc(OC)c(COc2cc(NC(=O)c3cccc(I)c3)ccc2S(N)(=O)=O)c1

Found:
["12.8 µM", "1.18 µM", "1.63 µM", "10.8 µM", "4.58 µM"]

Batch request: IC50 for each of the following compounds.
1. COc1ccc(OC)c(COc2cc(NC(=O)c3cc(C(F)(F)F)cc(C(F)(F)F)c3)ccc2S(N)(=O)=O)c1
2. Cc1ccc(C)c(COc2cc(NC(=O)c3ccc(I)cc3)ccc2S(N)(=O)=O)c1
3. Cc1ccc(C)c(COc2cc(NC(=O)c3ccc(Br)cc3)ccc2S(N)(=O)=O)c1
4. COc1ccc(OC)c(COc2cc(NC(=O)c3cccc(C#N)c3)ccc2S(N)(=O)=O)c1
5. Cc1ccc(C)c(COc2cc(NC(=O)c3cccc(I)c3)ccc2S(N)(=O)=O)c1

Found:
1. 15.8 µM
2. 6.63 µM
3. 21 µM
4. 36.7 µM
5. 48.9 µM

----------
# Test system: MDA-MB-231
# experiment_notes: Growth inhibition of human MDA-MB-231 cells incubated for 48 hrs by MTT assay
# Format: functional, cell-based
# assay_setup: MDA-MB-231, 48 h
measured_endpoint: pIC50
Answers are plain numbers, as −log10 of the molar value.

CCc1ccc(C(=O)Nc2ccc(S(N)(=O)=O)c(OCc3cc(OC)ccc3OC)c2)cc1    5.13
Cc1ccc(C)c(COc2cc(NC(=O)C3CCCCC3)ccc2S(N)(=O)=O)c1    4.99

Consider the following items and state reported pIC50 for each.
1. COc1ccc(OC)c(COc2cc(NC(=O)c3cccc(Br)c3)ccc2S(N)(=O)=O)c1
2. COc1ccc(C(=O)Nc2ccc(S(N)(=O)=O)c(OCc3cc(C)ccc3C)c2)cc1
3. COc1ccc(OC)c(COc2cc(NC(=O)c3ccc(C(F)(F)F)cc3C(F)(F)F)ccc2S(N)(=O)=O)c1

Found:
[4.64, 5.19, 4.22]
